# ASSAY: Toxicity liver stage against HepG2, at 10uM
# Format: cell-based
# Parameters: test concentration 10 uM, cell line HepG2-A16-CD81EGFP
# PARTICULARS: human, HepG2-A16-CD81EGFP cells; read-out: INHIBITION
REPORTED_METRIC: cytotoxicity at 10 µM (%)
Report the value in % with no unit label.

The cases that follow already have their cytotoxicity at 10 µM on record.
{"COMPOUND": "COc1ccc(CN(C(=O)C2CCCOC2)c2ccncc2)cc1 (configuration not stated)", "UNIT_LABEL": "%", "cytotoxicity at 10 µM": 6.35}
{"COMPOUND": "Cc1ccc(S(=O)(=O)NC(=O)CCc2ccccc2)cc1N(C)C", "UNIT_LABEL": "%", "cytotoxicity at 10 µM": -0.31}
{"COMPOUND": "COc1cccc(OC2CN(C(=O)Cn3nc4ccccc4n3)C2)c1", "UNIT_LABEL": "%", "cytotoxicity at 10 µM": -6.98}
{"COMPOUND": "COCC(=O)Nc1nn(Cc2ccc(F)cc2)cc1Cl", "UNIT_LABEL": "%", "cytotoxicity at 10 µM": 7.19}
{"COMPOUND": "COc1cc(C2(C(=O)NC3CCN(CC4CC4)CC3)CC2)ccc1C", "UNIT_LABEL": "%", "cytotoxicity at 10 µM": -11.2}
{"COMPOUND": "Cc1ccc(CNC2(Cc3cc(CO)on3)COC2)o1", "UNIT_LABEL": "%", "cytotoxicity at 10 µM": 0.305}
{"COMPOUND": "CS(=O)(=O)N1CCO[C@@H]2CN(C(=O)c3ccnnc3)C[C@@H]2C1", "UNIT_LABEL": "%", "cytotoxicity at 10 µM": 5.97}
{"COMPOUND": "NC(=O)c1cccc(CCNCc2cccs2)c1", "UNIT_LABEL": "%", "cytotoxicity at 10 µM": 1.68}

Briefly, cytotoxicity at 10 µM measured for Cc1cnn(CC2CCCN2Cc2cc(=O)n3ccccc3n2)c1 (configuration not stated) : -1.61

So, CSCCCNc1nccc(-c2cc(C(=O)O)ccn2)n1 ? Its cytotoxicity at 10 µM was 3.49

cytotoxicity at 10 µM reading for c1cncc(N2CCCn3nnc(CN4CCCCC4)c3C2)c1 : 1.24

The value of cytotoxicity at 10 µM measured for the compound CCCN(C)C(=O)c1ccc2c(c1)[nH]c(=O)n2CCOCC turned out to be -30.6
